Source of measurements: the supplement of paper PMC5908809

- System: NK-92 (IL-2 2.5 ng/mL)
- ASSAY TEXT: percent inhibition of viability; higher = more inhibition
- TEST PARAMETERS: 72 h; 100 nM
REPORTED PROPERTY: percent inhibition of viability (%)
One number for each entry, in %.

Please supply percent inhibition of viability for each of the following items, keeping them in order.
1. O=c1[nH]c(=O)n([C@H]2C[C@H](O)[C@@H](CO)O2)cc1F [Floxuridine] (max concentration tested 10000 nM)
2. CCOc1cc2ncc(C#N)c(Nc3ccc(OCc4ccccn4)c(Cl)c3)c2cc1NC(=O)/C=C/CN(C)C [Neratinib] (max concentration tested 1000 nM)
3. Cc1[nH]c2ccccc2c1CCNCc1ccc(/C=C/C(=O)NO)cc1 [Panobinostat] (max concentration tested 1000 nM)
4. CN(C)c1cc2c(cc1Sc1nc3c(N)nccc3n1CCNCC(C)(C)C)OCO2 [CUDC-305] (max concentration tested 10000 nM)
5. CCc1nc(-c2cccc(C)c2)c(-c2ccnc(NC(=O)c3ccccc3)c2)s1 [TAK-715] (max concentration tested 10000 nM)
6. CN(C)C(=O)c1cc2cnc(Nc3ccc(N4CCNCC4)cn3)nc2n1C1CCCC1 [NVP-LEE011] (max concentration tested 10000 nM)
7. Cc1cc(Nc2cc(CN3CCOCC3)c3nc(C)c(Cc4ccc(Cl)cc4F)n3n2)n[nH]1 [Gandotinib] (max concentration tested 10000 nM)
8. O=C(Nc1ccc2[nH]nc(-c3ccncc3)c2c1)[C@@H]1CCN(CC(=O)N2CCN(c3ccc(-c4ncccn4)cc3)CC2)C1 (max concentration tested 10000 nM)

1. 72.5
2. 7.67
3. 98.1
4. 13.8
5. 1.84
6. -4.22
7. 20.5
8. -16.6

###

Would you mind telling me the reported percent inhibition of viability of each entry?
- Test system: normal primary NK cells, pool 1 (3 donors), resting (IL-2 0 ng/mL)
- ASSAY TEXT: percent inhibition of viability; higher = more inhibition
- TEST PARAMETERS: 72 h; 0.1 nM
Reply with a number, then the unit it belongs to.

// worked examples, percent inhibition of viability included
COMPOUND | MEASURED ON | RESULT
O=C(Nc1cccc(Cl)c1)Nc1ncc(CCNc2ncnc3ccsc23)s1 [SNS-314] (max concentration tested 1000 nM) | normal primary NK cells, pool 1 (3 donors), resting (IL-2 0 ng/mL) | 3.09%
COc1cc2c(Nc3ccc(Cl)c(Cl)c3F)ncnc2cc1OC[C@@H]1C[C@@H]2CN(C)C[C@@H]2C1 [XL-647] (max concentration tested 1000 nM) | normal primary NK cells, pool 1 (3 donors), resting (IL-2 0 ng/mL) | -0.45%
CS(=O)(=O)CCNCc1ccc(-c2ccc3ncnc(Nc4ccc(OCc5cccc(F)c5)c(Cl)c4)c3c2)o1 [Lapatinib] (max concentration tested 1000 nM) | normal primary NK cells, pool 1 (3 donors), resting (IL-2 0 ng/mL) | -12%

In the following, a different compound is considered.
Missing value: percent inhibition of viability, normal primary NK cells, pool 1 (3 donors), resting (IL-2 0 ng/mL), entry O=C(c1ccc(F)c(F)c1Nc1ccc(I)cc1F)N1CC(O)([C@@H]2CCCCN2)C1 [Cobimetinib] (max concentration tested 1000 nM) . Fill in?
7.7%

###

Please go through the items and note down their percent inhibition of viability.
- Tested on: YT (IL-2 2.5 ng/mL)
- ASSAY TEXT: percent inhibition of viability; higher = more inhibition
- TEST PARAMETERS: 72 h; 10 nM
Give bare numbers, in %.

COMPOUND | MEASURED ON | UNIT SYMBOL | percent inhibition of viability
COc1cc(O)c2c(c1)/C=C/C[C@H](O)[C@H](O)C(=O)/C=C\C[C@H](C)OC2=O [(5Z)-7-Oxozeaenol] (max concentration tested 10000 nM) | YT (IL-2 2.5 ng/mL) | % | -5.3
COc1cccc2c1c(O)c(C(=O)N(C)c1ccc(C(F)(F)F)cc1)c(=O)n2C [Tasquinimod] (max concentration tested 10000 nM) | YT (IL-2 2.5 ng/mL) | % | 1.63

Fill in percent inhibition of viability for each of the 4 compounds listed.
1. O=C(Nc1ccncc1)C(=O)c1cn(Cc2ccc(Cl)cc2)c2ccccc12 [Indibulin] (max concentration tested 10000 nM)
2. CN(C)c1cc2c(cc1Sc1nc3c(N)nccc3n1CCNCC(C)(C)C)OCO2 [CUDC-305] (max concentration tested 10000 nM)
3. CN(c1ncccc1CNc1nc(Nc2ccc3c(c2)CC(=O)N3)ncc1C(F)(F)F)S(C)(=O)=O (max concentration tested 10000 nM)
4. CCN(CC)C(=S)SSC(=S)N(CC)CC [Disulfiram] (max concentration tested 100000 nM)

2.55
-8.94
-2.39
3.15

###

Can you tell me percent inhibition of viability for the items I'm about to list?
- System: normal primary NK cells, pool 3 (3 donors) (IL-2 2.5 ng/mL)
- ASSAY TEXT: percent inhibition of viability; higher = more inhibition
- TEST PARAMETERS: 72 h; 0.1 nM
Give bare numbers, in %.

MOLECULE | MEASURED ON | percent inhibition of viability, %
COc1cc2c(Nc3ccc(Cl)c(Cl)c3F)ncnc2cc1OC[C@@H]1C[C@@H]2CN(C)C[C@@H]2C1 [XL-647] (max concentration tested 1000 nM) | normal primary NK cells, pool 3 (3 donors) (IL-2 2.5 ng/mL) | -9.94
CCOc1cc2ncc(C#N)c(Nc3ccc(OCc4ccccn4)c(Cl)c3)c2cc1NC(=O)/C=C/CN(C)C [Neratinib] (max concentration tested 1000 nM) | normal primary NK cells, pool 3 (3 donors) (IL-2 2.5 ng/mL) | -13.9
CCS(=O)(=O)c1cccc(-c2cc(C(=O)NC3CCN(C)CC3)c(C)c3[nH]c4ncc(C)cc4c23)c1 [TAK-901] (max concentration tested 1000 nM) | normal primary NK cells, pool 3 (3 donors) (IL-2 2.5 ng/mL) | 1.04

Respectfully, I request percent inhibition of viability for each entry included below.
1. COc1ncc(-c2ccc3nccc(-c4ccnnc4)c3c2)cc1NS(=O)(=O)c1ccc(F)cc1F [Omipalisib] (max concentration tested 1000 nM)
2. O=C(c1ccc(F)c(F)c1Nc1ccc(I)cc1F)N1CC(O)([C@@H]2CCCCN2)C1 [Cobimetinib] (max concentration tested 1000 nM)
3. CS(=O)(=O)CCNCc1ccc(-c2ccc3ncnc(Nc4ccc(OCc5cccc(F)c5)c(Cl)c4)c3c2)o1 [Lapatinib] (max concentration tested 1000 nM)

1. -11.3
2. -9.25
3. -12.2

###

Record form. Attribute: relative IC50. Fill in for each entry.
- System: YT (IL-2 2.5 ng/mL)
- ASSAY TEXT: relative IC50 (inflection point of fitted viability curve, relative to fitted max inhibition); higher = less sensitive
- TEST PARAMETERS: 72 h
A complete answer gives the number followed by the unit.

Worked examples, 10 molecules total:
MOLECULE | relative IC50
COC(=O)C[C@](O)(CCCC(C)(C)O)C(=O)O[C@@H]1C(OC)=C[C@]23CCCN2CCc2cc4c(cc2[C@H]13)OCO4 [Omacetaxine] | 17.5 nM
O=C1NC(=O)/C(=C/c2ccc3nccc(-c4ccncc4)c3c2)S1 | 529 nM
C[C@@H]1C[C@H]2O[C@@H]2/C=C\C=C\C(=O)Cc2c(Cl)c(O)cc(O)c2C(=O)O1 [Radicicol] | 423 nM
COc1cc2ncnc(Nc3ccc(F)c(Cl)c3)c2cc1OCCCN1CCOCC1 [Gefitinib] | 2390 nM
CN(c1ccccc1CNc1nc(Nc2ccc3c(c2)CC(=O)N3)ncc1C(F)(F)F)S(C)(=O)=O | 1470 nM
COc1cc(Nc2ncc3c(n2)-c2ccc(Cl)cc2C(c2c(F)cccc2OC)=NC3)ccc1C(=O)O [Alisertib] | 91.9 nM
CCc1c2c(nc3ccc(OC(=O)N4CCC(N5CCCCC5)CC4)cc13)-c1cc3c(c(=O)n1C2)COC(=O)[C@]3(O)CC [Irinotecan] | 577 nM
O=C(/C=C/c1cccnc1)NCCCCC1CCN(C(=O)c2ccccc2)CC1 [Daporinad] | 6.27 nM
NCC(=O)Nc1ccc(-n2nc(C(F)(F)F)cc2-c2ccc3c(ccc4ccccc43)c2)cc1 | 5540 nM
Cc1c2oc3c(C)ccc(C(=O)N[C@@H]4C(=O)N[C@H](C(C)C)C(=O)N5CCC[C@H]5C(=O)N(C)CC(=O)N(C)[C@@H](C(C)C)C(=O)O[C@@H]4C)c3nc-2c(C(=O)N[C@@H]2C(=O)N[C@H](C(C)C)C(=O)N3CCC[C@H]3C(=O)N(C)CC(=O)N(C)[C@@H](C(C)C)C(=O)O[C@@H]2C)c(N)c1=O [Dactinomycin] | 0.98 nM

Here are 3 molecules. What values of relative IC50 were reported for them?
1. C=CC(=O)Nc1cc2c(Nc3ccc(F)c(Cl)c3)ncnc2cc1OCCCN1CCOCC1 [Canertinib]
2. CN(c1ncccc1CNc1nc(Nc2ccc3c(c2)CC(=O)N3)ncc1C(F)(F)F)S(C)(=O)=O
3. S=c1[nH]cnc2nc[nH]c12 [Mercaptopurine]

1: 1970 nM; 2: 1530 nM; 3: 1410 nM
